- system_name: MRG15 MRG V227A (human) (UniProt Q9UBU8)
- procedure_summary: ITC
pKd: −log10 of the molar value.
quantity_kind: pKd

[[record]]
binder = "DYVQPQLRRPFELLIAAAMERNPTQFQLPNELTCTTALPGSS (domain or fragment) [Pf1 MBD (MRG-binding domain, residues 200–241)]"
quantity_kind = "pKd"
result_number = 6.71

